For each record, write down the corresponding Papp B→A at 1 h, 10 µM.
# EXPERIMENT: Apparent permeability of the compound across basolateral side to apical side in human Caco2 cells monolayer at 10 uM after 1 hr by LC-MS/MS analysis
# Format: ADME, cell-based
# CONDITIONS: Caco-2
Answers are plain numbers, in ×10⁻⁶ cm/s.

# count of solved cases: 2
COMPOUND | QUANTITY NAME | REPORTED MEASUREMENT
CC(C)NCC(O)COc1cccc2ccccc12 (stereo not drawn) | Papp B→A at 1 h, 10 µM | 43.3
O=C(CCn1cnc([N+](=O)[O-])n1)Nc1cccc(OCc2ccccc2)c1 | Papp B→A at 1 h, 10 µM | 17.6

Turning now to a further compound:
**Q:** // returns reported Papp B→A at 1 h, 10 µM for input `O=C(CCn1cnc([N+](=O)[O-])n1)Nc1cccc(-c2ccccc2)c1`
**A:** 17.5
